This collection of values is drawn from the RNAGym collection of RNA variant scans (doi:10.7554/elife.80360).

B1: Twister Ribozyme (parent)
chain: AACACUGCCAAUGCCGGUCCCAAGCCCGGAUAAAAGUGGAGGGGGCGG

Variants of: B1
Assay: self-cleavage, relative activity (ratio to wild type); higher = more cleavage; co-transcriptional
For each of the variants below, state its self-cleavage.
Write the number on its own, no unit after it.

Query: Need self-cleavage of G16A A34C , thanks.
Result: 0.174

Query: Any idea what its self-cleavage is? The variant is A1U G16U
Result: 0.0446

Query: Given the variant C20A G42U , what is its reported self-cleavage?
Result: 0.668

Query: Fill in the blank: the reported self-cleavage of U6G G41U is ____.
Result: 0.129

Query: Record request: self-cleavage value, item C14U A32U
Result: 1.04

Query: Entry C9G C46A : reported self-cleavage = ?
Result: 0.376

Query: Endpoint output: self-cleavage of C14U U37C . Value?
Result: 0.602

Query: Return reported self-cleavage; argument: G7A G43U
Result: 0.152

Query: Requested read-out: self-cleavage. Entry: G39A G44U
Result: 0.322

Query: Return reported self-cleavage; argument: G16U A23G
Result: 0.0652

Query: Dear colleague, I am looking for the recorded self-cleavage of the following variant: U12A G24U
Result: 0.172

Query: Consider the variant C9U G17U and give its measured self-cleavage.
Result: 0.102

Query: Endpoint output: self-cleavage of C8A C14G . Value?
Result: 0.0608

Query: Form field: reported self-cleavage of C21G A40C
Result: 0.0546

Query: What value of measured self-cleavage is listed for U12G G38A ?
Result: 0.771

Query: I'd like to know its self-cleavage. The variant in question is A1C G38U
Result: 0.22

Query: Field request: self-cleavage | item: A35G C46G
Result: 0.868

Query: // query self-cleavage value for entry A4C G24C
Result: 0.078

Query: # self-cleavage lookup, item C15U C20G
Result: 0.135

Query: Reported self-cleavage for C9U U37C : what is it?
Result: 0.122

Query: Quick one: self-cleavage of C8A A40U ?
Result: 0.2

Query: Can you share its self-cleavage? I mean this variant: G16C C21A
Result: 0.0849

Query: Report self-cleavage for A4U A40U please.
Result: 0.0743

Query: # query: self-cleavage of entry A32C G39A
Result: 0.586

Query: Entry under review: U31G A33U . Reported self-cleavage?
Result: 0.876

Query: Consider the variant shown here: C3A A32C What is its recorded self-cleavage?
Result: 0.188

Query: self-cleavage for A1U C14G ?
Result: 0.0363

Query: What value of self-cleavage has been reported for the following variant? C3U G28A
Result: 0.409

Query: For the variant shown here, C20U G36A , give the reported self-cleavage.
Result: 0.216

Query: Consider the variant shown here: A11C G36C What is its recorded self-cleavage?
Result: 0.636

Query: If you can, please state the reported self-cleavage value of A22G G24U .
Result: 0.0699

Query: Reported self-cleavage, variant C14G U31C : ____
Result: 0.142

Query: Can you look up the measured self-cleavage of A2G G17A for me?
Result: 0.113

Query: Could you share which self-cleavage value was measured for G13C A40G ?
Result: 0.0963

Query: self-cleavage; subject: A32G G41C
Result: 0.211

Query: # get_value(readout='self-cleavage', item= A4G G41U )
Result: 0.405

Query: I have this variant here, C3G G13A , and I need its recorded self-cleavage.
Result: 0.138

Query: // returns reported self-cleavage for input C20G A40G
Result: 0.104

Query: I'd like to know its self-cleavage. The variant in question is C8G G45U
Result: 0.183

Query: Consider the variant G38U G48U and give its measured self-cleavage.
Result: 1.05

Query: Form field: reported self-cleavage of G24A A34C
Result: 0.0735

Query: Need self-cleavage of A30C U31C , thanks.
Result: 0.841

Query: # self-cleavage lookup, item A2C A22U
Result: 0.0564

Query: Return reported self-cleavage; argument: U6C A40C
Result: 0.11

Query: // self-cleavage lookup, key: A1C C26A
Result: 0.171

Query: Record request: self-cleavage value, item `C21A`
Result: 0.13

Query: # lookup: self-cleavage of G17A C19G
Result: 0.14

Query: Which value of self-cleavage has been reported for C5G A30C in the records?
Result: 0.259

Query: Request the reported self-cleavage associated with A11U G43C
Result: 0.234

Query: Please look up its self-cleavage: `A23C`
Result: 0.385

Query: Using the record for U12A A22C , report its self-cleavage.
Result: 1.08

Query: Using the record for U6G C26U , report its self-cleavage.
Result: 0.0975

Query: Reported self-cleavage for C8G G13A : what is it?
Result: 0.405

Query: Return reported self-cleavage; argument: C9U C26G
Result: 0.0629

Query: Report self-cleavage for A22C A32G please.
Result: 0.879

Query: # input variant: C21U G42U ; wanted: its self-cleavage
Result: 0.0927

Query: For the variant A10C A33G , what self-cleavage is on record?
Result: 1.04

Query: What measured self-cleavage goes with A4G G24U ?
Result: 0.12

Query: Entry A33C C46G has what self-cleavage?
Result: 0.751

Query: // self-cleavage lookup, key: U12C G16C
Result: 0.482

Query: # input variant: C3U G45U ; wanted: its self-cleavage
Result: 0.338

Query: For the variant A1U A11G , what self-cleavage is on record?
Result: 0.0739

Query: Which self-cleavage value belongs to C5U U18G ?
Result: 0.066

Query: Entry under review: G16C G28C . Reported self-cleavage?
Result: 0.306

Query: Which measured self-cleavage value corresponds to G7U G36C ?
Result: 0.0408

Query: Requested read-out: self-cleavage. Entry: C8A G48C
Result: 0.346

Query: Requested read-out: self-cleavage. Entry: C15U A22U
Result: 0.703

Query: Need self-cleavage, item C19G C46A
Result: 0.18

Query: self-cleavage for C5A C8A ?
Result: 0.133

Query: I am curious: what self-cleavage value has been reported for A1C G16C ?
Result: 0.192

Query: Please look up its self-cleavage: G29C G39U
Result: 0.12
